Taken from paper PMC5540273.

Recorded measurements of %Inh, one per entry
- Tested on: ULK1
- runConditions: concentration: 1 μM, replicates: in singlicate; n = 1;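 also: KINOMEscan kinase panel screen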
measuredParameter: %Inh (%)

[[record]]
molecule = "Cc1c(Cn2c3ccccc3n3c(=O)cc(N4CCOCC4)nc23)cccc1C(F)(F)F [GSK2306394]"
outputunit = "%"
testresult = 21

[[record]]
molecule = "O=C1NC(=O)C(c2ccc(Cl)cc2)=C1Nc1ccc(O)cc1 [SB-340867]"
outputunit = "%"
testresult = 0

[[record]]
molecule = "COc1ccc(Nc2nccc(NCCNC(=O)Nc3cc(C)ccc3C)n2)cc1 [GSK1379899]"
outputunit = "%"
testresult = 28

[[record]]
molecule = "CSc1ccc(-c2nc3n(c2-c2ccncc2)CCC3)cc1 [SKF-105561]"
outputunit = "%"
testresult = 18

[[record]]
molecule = "COc1cc2ncnc(Nc3cccc(Br)c3)c2cc1OC.Cl [GI230329]"
outputunit = "%"
testresult = 9

[[record]]
molecule = "Cc1ccccc1Cn1ccn2c(=O)cc(N3CCOCC3)nc12 [GSK2269905]"
outputunit = "%"
testresult = 16

[[record]]
molecule = "Fc1ccc(-c2nc[nH]c2-c2ccncc2)cc1 [SB-217360]"
outputunit = "%"
testresult = 20

[[record]]
molecule = "Cc1cccc2c(-c3ccncn3)c(-c3ccc(F)cc3)nn12 [GW515532]"
outputunit = "%"
testresult = 19


====

Recorded measurements of %Inh, one per entry
- System: MLK2
- runConditions: concentration: 1 μM, replicates: in singlicate; n = 1
measuredParameter: %Inh

[[record]]
molecule = "COc1ccc(Nc2nccc(N3CCC(NC(=O)C(C)c4ccc(Cl)cc4)CC3)n2)cc1 (centres unmarked) [GSK1379812]"
measuredparameter = "%Inh"
testresult = "0%"

[[record]]
molecule = "CC(C)c1cc(-c2ccc3c(N)n[nH]c3c2)nc(N)n1 [GSK2250882]"
measuredparameter = "%Inh"
testresult = "0%"

[[record]]
molecule = "Cc1ccc(NC(=O)c2ccc(Cl)cc2)cc1-c1ccc(C(=O)Nc2ccncc2)cc1 [GSK1398467]"
measuredparameter = "%Inh"
testresult = "9%"

[[record]]
molecule = "CNC(=O)c1ccc(C)c(-n2c(C)cc(OCc3ccc(F)cc3F)c(Br)c2=O)c1"
measuredparameter = "%Inh"
testresult = "0%"

[[record]]
molecule = "CNc1nc(-c2ccc3c(N)n[nH]c3c2)cc(N2C[C@@H](C(=O)NC3CCCCC3)OC[C@H]2C)n1 [GSK2375584]"
measuredparameter = "%Inh"
testresult = "23%"


====

- System: PIP5K1C
- runConditions: concentration: 1 μM, replicates: in singlicate; n = 1
measuredParameter: %Inh (%)

[[record]]
compound = "CC(=O)c1cccc(NC(=O)NC2CCN(c3ccnc(Nc4ccc(F)cc4)n3)C2)c1 (stereo not shown) [GSK1379710]"
testresult = 50

[[record]]
compound = "COc1ccc(CSc2nnc(-c3ccc4ncsc4c3)o2)cc1C(F)(F)F"
testresult = 11

[[record]]
compound = "CCn1c(-c2ccccc2)nc2cnccc21 [SB-733416]"
testresult = 21

[[record]]
compound = "CNc1cc(-c2ccc3c(N)n[nH]c3c2)nc(N)n1 [GSK2224810]"
testresult = 45


====

- Tested on: FLT1
- runConditions: concentration: 1 μM, replicates: in singlicate; n = 1
measuredParameter: %Inh (%)

[[record]]
compound = "CCc1ccc(-c2ccc3c(c2)-c2n[nH]cc2S(=O)(=O)N3C)cc1"
testresult = 14

[[record]]
compound = "CN1c2ccc(-c3ccc(C(N)=O)cc3)cc2-c2[nH]ncc2S1(=O)=O"
testresult = 5

[[record]]
compound = "CNc1cc(-c2ccc3c(N)n[nH]c3c2)nc(N)n1 [GSK2224810]"
testresult = 15

[[record]]
compound = "COc1ccc2cc(-c3nc(-c4ccccc4C(C)C)[nH]c3-c3ccncc3)ccc2c1 [SB-660566]"
testresult = 19

[[record]]
compound = "Nc1cccc(-c2ccc3c(N)n[nH]c3c2)n1 [GSK2192730]"
testresult = 0

[[record]]
compound = "COc1nccc(-c2c(-c3ccc(F)cc3)ncn2CCCN2CCOCC2)n1 [SB-282852]"
testresult = 10

[[record]]
compound = "O=C(Nc1n[nH]c2nc(-c3cccs3)c(Br)cc12)C1CC1 [SB-735297]"
testresult = 8

[[record]]
compound = "CSc1ccc(-c2nc3n(c2-c2ccncc2)CCC3)cc1 [SKF-105561]"
testresult = 7

[[record]]
compound = "CNc1nc(-c2ccc3c(N)n[nH]c3c2)cc(N2C[C@@H](C(=O)Nc3ccccc3)CC[C@H]2C)n1 [GSK2298859]"
testresult = 35

[[record]]
compound = "COc1ccc(Nc2nccc(N3CCC(NC(=O)c4cc5ccccc5s4)C3)n2)cc1 (stereo not drawn) [GSK1379738]"
testresult = 14

[[record]]
compound = "Cc1cnc(N)c(/C=C/c2cncc(C(=O)NCCc3ccc(Cl)cc3Cl)c2)c1.Cl [GSK190937]"
testresult = 0

[[record]]
compound = "Cc1ccc(-c2nc(Nc3ccncc3)c3ccccc3n2)s1 [GSK189015]"
testresult = 39

[[record]]
compound = "COc1ccc(CSc2nnc(-c3ccc4nccn4c3)o2)cc1C(F)(F)F"
testresult = 35

[[record]]
compound = "O=C(Nc1n[nH]c2nc(-c3ccco3)c(Br)cc12)C1CCN(Cc2ccccc2)C1.O=C(O)[C@H](O)[C@@H](O)C(=O)O (stereo not drawn) [SB-742034]"
testresult = 0

[[record]]
compound = "COc1ccc(Nc2nccc(-c3ccc(NC(=O)c4cc5cc(F)ccc5[nH]4)cc3)n2)cc1 [GSK1229496]"
testresult = 4


====

- System: TNK1
- runConditions: concentration: 1 μM, replicates: in singlicate; n = 1
Doc: threshold 4% (exclusive). Items with %Inh beneath it return Condition met; others return Condition not met.

[[record]]
compound = "CS(=O)(=O)CCNCc1nc(-c2ccc3ncnc(Nc4ccc5c(cnn5Cc5ccccc5)c4)c3c2)cs1.Cl.Cl [GW569716]"
studysystem = "TNK1"
classassignment = "Condition met"

[[record]]
compound = "Cn1cncc1C(=O)NC1CCN(c2ccnc(Nc3ccc(F)cc3)n2)C1 (stereo not drawn) [GSK1379717]"
studysystem = "TNK1"
classassignment = "Condition met"

[[record]]
compound = "Nc1cccc(-c2ccc3c(N)n[nH]c3c2)n1 [GSK2192730]"
studysystem = "TNK1"
classassignment = "Condition met"

[[record]]
compound = "O=C(Nc1n[nH]c2nc(-c3cccs3)c(Br)cc12)C1CC1 [SB-735297]"
studysystem = "TNK1"
classassignment = "Condition not met"

[[record]]
compound = "COC(=O)c1cccc(NC(=O)NC2CCN(c3ccnc(Nc4ccc(F)cc4)n3)C2)c1 (stereo not drawn) [GSK1379725]"
studysystem = "TNK1"
classassignment = "Condition met"

[[record]]
compound = "CNc1cc(-c2ccc3c(N)n[nH]c3c2)nc(N)n1 [GSK2224810]"
studysystem = "TNK1"
classassignment = "Condition met"

[[record]]
compound = "Cc1ccc(NC(=O)Nc2ccccc2)cc1-c1ccc(C(=O)Nc2ccncc2)cc1 [GSK1398471]"
studysystem = "TNK1"
classassignment = "Condition not met"

[[record]]
compound = "Cc1c(Cn2c3ccccc3n3c(=O)cc(N4CCOCC4)nc23)cccc1C(F)(F)F [GSK2306394]"
studysystem = "TNK1"
classassignment = "Condition met"

[[record]]
compound = "COc1ccc(CSc2nnc(-c3ccc4c(c3)CCO4)o2)cc1"
studysystem = "TNK1"
classassignment = "Condition met"

[[record]]
compound = "COc1ccc(Nc2nccc(N3CCC(NC(=O)C(C)c4ccc(Cl)cc4)C3)n2)cc1 (stereo not drawn) [GSK1379735]"
studysystem = "TNK1"
classassignment = "Condition met"

[[record]]
compound = "Cc1cnc(N)c(/C=C/c2cncc(C(=O)NCCc3ccc(Cl)cc3Cl)c2)c1.Cl [GSK190937]"
studysystem = "TNK1"
classassignment = "Condition met"

[[record]]
compound = "O=C(Nc1n[nH]c2cc(-c3ccsc3)ccc12)C1CC1 [SB-732932]"
studysystem = "TNK1"
classassignment = "Condition met"

[[record]]
compound = "Cc1ccc(NC(=O)Nc2ccccc2F)cc1-c1ccc(C(=O)Nc2ccncc2)cc1 [GSK1398477]"
studysystem = "TNK1"
classassignment = "Condition not met"

[[record]]
compound = "Cn1cncc1-c1cc2c(Nc3ccc(OCc4ccccc4)cc3)ncnc2cn1 [GW281179]"
studysystem = "TNK1"
classassignment = "Condition met"

[[record]]
compound = "CC(C)c1ccc(O)cc1Nc1ccnc2ccc(C(F)(F)F)cc12 [GW482059]"
studysystem = "TNK1"
classassignment = "Condition met"

[[record]]
compound = "COc1ccc(Nc2nccc(N3CCC(NC(=O)c4cc5ccccc5s4)C3)n2)cc1 (stereo not drawn) [GSK1379738]"
studysystem = "TNK1"
classassignment = "Condition not met"

[[record]]
compound = "COc1cccc(NC(=O)Nc2ccc(C)c(-c3ccc(C(=O)Nc4ccncc4)cc3)c2)c1 [GSK1398474]"
studysystem = "TNK1"
classassignment = "Condition not met"

[[record]]
compound = "CC(=O)c1cccc(NC(=O)NC2CCN(c3ccnc(Nc4ccc(F)cc4)n3)C2)c1 (stereo not drawn) [GSK1379710]"
studysystem = "TNK1"
classassignment = "Condition met"

[[record]]
compound = "O=c1cc(N2CCOCC2)nc2n(Cc3cccc(Cl)c3Cl)c3ccccc3n12 [GSK2299009]"
studysystem = "TNK1"
classassignment = "Condition not met"

[[record]]
compound = "c1ccc(-c2ccnc3[nH]ccc23)cc1 [SB-693578]"
studysystem = "TNK1"
classassignment = "Condition met"

[[record]]
compound = "Fc1ccc(-c2nc3n(c2-c2ccncc2)CCS3)cc1 [GI98581]"
studysystem = "TNK1"
classassignment = "Condition met"

[[record]]
compound = "CC(=O)c1c(C)c2cnc(Nc3ccn(C)n3)nc2n(C2CCCC2)c1=O"
studysystem = "TNK1"
classassignment = "Condition not met"

